- EXPERIMENTAL_TARGET: Human immunodeficiency virus type 1 reverse transcriptase (Human immunodeficiency virus 1)
METRIC: IC50

Lookup result for O=C(NN1C(=O)[C@@H]2C3C=CC(C4CC43)[C@@H]2C1=O)c1ccc(Cn2cnc3ccccc32)cc1 (stereo partly specified) ; measured IC50: > 457 µM

###

- EXPERIMENTAL_TARGET: Human immunodeficiency virus type 1 integrase (Human immunodeficiency virus 1, UniProt Q7ZJM1)
- Sequence (Q7ZJM1 whole entry): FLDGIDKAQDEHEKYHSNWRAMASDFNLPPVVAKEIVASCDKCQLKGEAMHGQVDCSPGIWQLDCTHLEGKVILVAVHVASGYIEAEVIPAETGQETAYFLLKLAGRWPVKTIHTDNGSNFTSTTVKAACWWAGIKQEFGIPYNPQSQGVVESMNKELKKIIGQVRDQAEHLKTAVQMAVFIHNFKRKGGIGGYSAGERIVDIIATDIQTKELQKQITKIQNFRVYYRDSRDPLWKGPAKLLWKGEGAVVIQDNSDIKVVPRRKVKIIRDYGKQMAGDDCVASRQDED
METRIC: IC50

Lookup result for O=C(NN1C(=O)[C@@H]2C3C=CC(C4CC43)[C@@H]2C1=O)c1ccc(Cn2cnc3ccccc32)cc1 (stereo partly specified) ; measured IC50: > 228 µM
